# System: CCRF-CEM
# ASSAY_TEXT: NCI tumour cell line growth inhibition, 48 h
Activity calls are given as the source filed them. Cut-off read from the data, not from the text of the source: active = GI50 up to about 1.1 µM and inactive = higher.
// one of class 1 = active, class 0 = inactive, no free text

Illustrative cases are given below, each with its answer.
CN1N=C(N)c2cn(C3OC(COP(=O)(O)O)C(O)C3O)c3ncnc1c23 (centres undefined) = class 0
NC1c2c(Br)sc(N3CCCC3)c2C(=O)C1O (centres undefined) = class 0
N=C(N)SCc1ccc2c(c1)Sc1ccccc1O2 = class 0
COc1ccc2c(c1)C(=O)OCCC2 = class 0
CC(=O)NNc1nc(C)c(C(/C=C/c2ccc([N+](=O)[O-])cc2)=N/NC(N)=O)s1 = class 0
CCOC(=O)c1csc(CCCCCCc2nc(C(=O)OCC)cs2)n1 = class 0

# input for lookup
Enquiry: Call for entry COc1ccc(/C=C2/CSCC3=C2N=C(S)NC3c2ccc(OC)c(OC)c2OC)c(OC)c1OC (centres undefined) :
Return: class 0
